Test system: diabetic (ob/ob) mice
Assay details: Blood glucose lowering activity in diabetic (ob/ob) mice
Assay type: in vivo, mouse
Applied conditions: Mus musculus, po, 96 h, ob/ob mice, dose 100 mg/Kg, plasma glucose Day 4, 7 or 14; read-out: % Change Glucose from Vehicle
Answer label 0 if change in vivo at 100 mg/kg is under -40%, and label 1 if it is -40% or more.

*Q* Please indicate if the recorded change in vivo at 100 mg/kg for O=C(O)[C@@H](Cc1ccccc1)Oc1c(Br)cc(-c2c3c(c(Br)c4ccccc24)S(=O)(=O)c2ccccc2-3)cc1Br meets or exceeds -40%.
*A* label 0

*Q* Is the recorded value of change in vivo at 100 mg/kg equal to or greater than -40% for this molecule? O=C(O)COc1ccc(-c2c3ccccc3c(Br)c3sc4ccccc4c23)cc1
*A* label 1

*Q* Record O=C(O)[C@@H](Cc1ccccc1)Oc1c(Br)cc(-c2c3ccccc3c(Br)c3sc4ccccc4c23)cc1Br ; criterion: change in vivo at 100 mg/kg no lower than -40%. Met?
*A* label 0

*Q* Threshold query (change in vivo at 100 mg/kg >= -40%) on C[C@@H](Oc1c(Br)cc(-c2c3ccccc3c(Br)c3sc4ccccc4c23)cc1Br)C(=O)O
*A* label 0

*Q* Quick check: does O=C(O)COc1c(Br)cc(-c2c3ccccc3c(Br)c3sc4ccccc4c23)cc1Br have change in vivo at 100 mg/kg greater than or equal to -40%?
*A* label 1

*Q* State whether the measured change in vivo at 100 mg/kg reaches -40%, counting equality as reaching it, for N#Cc1c2ccccc2c(-c2cc(Br)c(O[C@@H](Cc3ccccc3)C(=O)O)c(Br)c2)c2c1sc1ccccc12
*A* label 1

FYI, the data here is from patent US6110962A.
